interaction score listing for selected binders.
Molecular target: T1, 4H3709-AA
T1 chain: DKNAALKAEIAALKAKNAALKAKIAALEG
Experiment: two-hybrid library CCmax;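 further: natural log of median RNA to DNA barcode read ratio; higher means stronger binding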
Details: mean of both orientations

>  <BINDER>
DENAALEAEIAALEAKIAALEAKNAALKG [4H1064-AA]

>  <interaction score>
-0.57

$$$$
>  <BINDER>
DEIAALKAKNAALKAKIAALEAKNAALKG [4H1000-AA]

>  <interaction score>
-1.07

$$$$
>  <BINDER>
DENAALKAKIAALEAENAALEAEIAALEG [4H1809-AA]

>  <interaction score>
1.51

$$$$
>  <BINDER>
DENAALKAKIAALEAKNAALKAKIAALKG [4H1854-AA]

>  <interaction score>
-0.898

$$$$

Data origin, for the record: paper PMC10397247
